Entry source: patent US20180334496A1

Reported Kd values follow for various binders
Target: T1, human complement factor D purified from serum (human, UniProt P00746 26-253)
T1 construct: serum-purified (CompTech); also called hCFD-Comptech; CFD
T1 sequence (P00746 26-253): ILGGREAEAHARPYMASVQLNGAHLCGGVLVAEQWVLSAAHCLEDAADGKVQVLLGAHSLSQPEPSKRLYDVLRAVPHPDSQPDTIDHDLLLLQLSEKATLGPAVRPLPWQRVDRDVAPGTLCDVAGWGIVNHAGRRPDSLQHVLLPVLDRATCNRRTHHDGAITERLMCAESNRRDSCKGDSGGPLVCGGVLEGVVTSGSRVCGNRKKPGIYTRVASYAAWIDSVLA
Experiment: SPR MX96
Give the value in nM but do not write nM after it.

* KCD128 (antibody, V domains shown) VH: QVQLQQPGAELVRPESSVKLSCKASGYTFTSYWMDWVMQRPGQGLEWIGNIYPSGSETHYNQKFKDKATLTVDKSSTTAYMQLSSLTFEDSAVYYCARSGFIGSRYLYYFDYWGQGTTLTVSS VL: DIVMTQSHKFMSTSVGDRVTITCKASQDVSNAVAWYQLKPGQSPKLLIYSASYRYTGVPDRFTGSGSGTDFTFTISSVQAADLAVYYCQQHYITPYTFGGGTKLEIK | 14

Inquiry: Name the recorded Kd for KCD019 (antibody, V domains shown) VH: QVQLQQSGAELARPGASVKMSCKASGYTFATYTIHWVKQRPGQGLEWIGYLNLRNDYTHYNQKFRDKAALTADKSSSTAYMQLSSLTSEDSAVYNCAFRLGNDRQGWYFDVWGAGTTVTVSS VL: DIVMTQAHRFMSTSVGDRVIISCKASQDVGTAVAWYQQTPGQSPKILIYWTSTRHTGVPDRFTGSRSGTDFTLTISNVQSEDLADYFCQQYTTYPLTFGGGTKLEIK .
Reply text: 7.2

Inquiry: Need Kd of KCD110 (antibody, V domains shown) VH: EVQLQQSGPELVKPGASVKISCKASGYSFTGYYMHWVKQSHGNILDWIGYIDPDNGVSSKNQKFTGKATVTADKSSSTAYMELRSLTSEDSAVYYCAGYYGSSWYWYFDVWGTGTTVTVSS VL: QIVLSQSPAILSASPGEKVTMTCRASSSVSYMHWYQQKPGSSPKPWIYATSNLASGVPARFSGSGSGTSYSLTISRVEAEDAATYYCQQWSSNPYTFGGGTKLEIK , thanks.
Reply text: 3.7
